test system: cyBCMA; experiment: Kinetics and affinity of cyBCMA/human IgG interactions by SPR (Bio-Rad Proteon XPR36); assay type: binding, cynomolgus; details: 37° C.
Measured metric: ka (1/Ms) cyBCMA @ 37° C. (M⁻¹ s⁻¹)
Answer format: numeric, M⁻¹ s⁻¹ implied, no suffix.

Dear colleague, please send me the reported ka (1/Ms) cyBCMA @ 37° C. for L3.PY/L3.KY/H2.HA: anti-BCMA antibody (antibody, V domains shown) VH: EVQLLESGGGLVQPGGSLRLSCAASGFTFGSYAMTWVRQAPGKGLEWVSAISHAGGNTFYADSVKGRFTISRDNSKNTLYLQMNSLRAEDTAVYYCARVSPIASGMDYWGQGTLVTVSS VL: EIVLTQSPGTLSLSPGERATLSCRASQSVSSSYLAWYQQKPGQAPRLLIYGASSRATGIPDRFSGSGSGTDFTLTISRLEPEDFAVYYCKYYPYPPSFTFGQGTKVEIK when you can. 2.28e+06

These data points were gathered from patent US11814435B2.
